Measured values drawn from paper PMC9473745 for this set.

METRIC: IC50 (µM)
Please respond with the number in µM and leave the unit unwritten.

Hi! What's the reported IC50 for COc1ccc(C(=O)COC(=O)c2ccccc2NS(=O)(=O)c2ccc(O)c([N+](=O)[O-])c2)cc1 [Compound Z56965384] on USP10 catalytic domain (Homo sapiens, UniProt Q14694)?
26.6

---

- SYSTEM_TESTED: USP7 catalytic domain (Homo sapiens, UniProt Q93009)
- Sequence (Q93009 208-560): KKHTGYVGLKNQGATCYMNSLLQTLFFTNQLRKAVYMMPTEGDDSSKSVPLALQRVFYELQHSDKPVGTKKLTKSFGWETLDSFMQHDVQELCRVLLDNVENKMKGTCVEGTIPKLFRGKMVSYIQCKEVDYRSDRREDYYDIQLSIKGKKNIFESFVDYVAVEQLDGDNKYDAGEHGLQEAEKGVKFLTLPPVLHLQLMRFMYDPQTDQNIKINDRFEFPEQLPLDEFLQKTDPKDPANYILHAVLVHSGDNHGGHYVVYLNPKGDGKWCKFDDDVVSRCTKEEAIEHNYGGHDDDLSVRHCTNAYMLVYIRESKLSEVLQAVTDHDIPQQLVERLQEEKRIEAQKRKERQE
- TEST_DETAILS: Ubiquitin rhodamine 110 kinetic assay, USP7 catalytic domain
- Type: biochemical
- CONDITION_CONTEXT: read-out: IC50 ± SEM; USP7; kinetic Ub-Rho assay, 12-point dose-response; mean ± SEM (n)
METRIC: IC50 (µM)
Please respond with the number in µM and leave the unit unwritten.

Query: IC50; subject: Cc1nn(-c2ccccc2)c2c1C1(C(=O)Nc3ccccc31)N1C(=N2)Sc2ccccc21 (stereo not shown)
4.68
